meta.source: patent US20030148958A1

Item-by-item account of CRF2R Emax %
- Tgt: T1, CRF2R
- T1 sequence (Q13324 whole entry, species assumed, looked up): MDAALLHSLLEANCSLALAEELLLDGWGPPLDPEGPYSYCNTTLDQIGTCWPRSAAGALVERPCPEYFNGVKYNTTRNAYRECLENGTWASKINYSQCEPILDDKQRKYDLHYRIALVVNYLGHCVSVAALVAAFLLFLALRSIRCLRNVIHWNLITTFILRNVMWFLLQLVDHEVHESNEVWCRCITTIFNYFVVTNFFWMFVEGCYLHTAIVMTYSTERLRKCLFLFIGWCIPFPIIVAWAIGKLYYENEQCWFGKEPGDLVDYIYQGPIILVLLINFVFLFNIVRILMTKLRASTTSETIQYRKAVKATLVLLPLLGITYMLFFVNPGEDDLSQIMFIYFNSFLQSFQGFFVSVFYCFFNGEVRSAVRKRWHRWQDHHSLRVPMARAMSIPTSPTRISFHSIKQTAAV
- Procedure Details: cell-based or functional assay; also: reference of the scale not given here
The reply should contain only the number, in %.

| Binder | CRF2R Emax % / % |
| --- | --- |
| ZGPPISIDLPYQLLRKMIEIEKQEKEKQQAANNARLLAR (C-terminal amide) [SEQ ID NO 287] | 100 |

Can you share its CRF2R Emax %? I mean this binder: ZGPPISIDLPLQLLRKVIEIEKQEKEKQQATTNARILARV (C-terminal amide) [SEQ ID NO 320]
100

Can you share its CRF2R Emax %? I mean this binder: ZGPPISIDLPLWLLRKMIEIEKQEKEKQQAANNRLLLDTI (C-terminal amide) [SEQ ID NO 218]
96
